- ASSAY: MM1S cell viability effects, profiling panel, calcein-AM fluorescence, 48 h, basal (AID 1165);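 further: viability of MM1S multiple myeloma cells under basal unstimulated conditions; test concentration not given here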
- CONDITION SET: higher = more signal
Kind request: treat -0.8 as inclusive, so z-score at -0.8 or higher is yes, anything lower is no.

COMPOUND | ASSIGNED CLASS
COCCCNC(=O)[C@@]1(Sc2ccc(C)cc2)CC(=O)N(Cc2ccccc2Cl)[C@@H]1c1ccc(CO)cc1I | no
COCCOC(=O)N1C(=O)[C@@]2(c3ccccc31)[C@H](c1ccc(OCCO)cc1)N1[C@H](c3ccccc3)[C@H](c3ccccc3)OC(=O)[C@H]1[C@@H]2C(=O)N1CCCCCCC1 | no
O=C1C2C=CC(C(O)C=Cc3ccc([N+](=O)[O-])cc3)N(Nc3ccccc3)C2C(=O)N1c1ccccc1 (stereo not given) | yes

Proceed to the following item.
INPUT: Could you please find out whether CCCCCN1CC=CC23O[C@@H]4C=CCOC(=O)[C@@H]4[C@H]2C(=O)N(CCO)[C@@H]3C1=O (stereo not given in full) has z-score that meets -0.8 or exceeds it?
OUTPUT: yes
